Entry source: PubChem BioAssay (NCI)

System: SNB-19 CNS
Assay: NCI tumour cell line growth inhibition, 48 h
MEASUREMENT NAME: TGI

N#Cc1ccccc1/C=N/O
> 100 µM
COc1ccc2c(c1)N(CCO)C1=C(C(=O)OC1)C2c1cccc(Br)c1 (stereo not drawn)
> 100 µM
CNC(=S)N/N=C(/C)CCC/C(C)=N/NC(=S)NC
> 100 µM
CC(=O)OCC1OC(OC2CC3C(C)(C)C(=O)CC[C@]3(C)C3CC[C@]45C[C@]4(CCC5[C@@H](C)CC(O)C(O)C(C)(C)O)[C@]23C)C(O)C(O)C1O (stereo partly drawn)
23.3 µM
COC(=O)/C(Cl)=C1/CC1COCc1ccccc1 (stereo not drawn)
> 100 µM

Q) Requested field: TGI. Item: CCOC(=O)C1=C(N)Oc2cc(OC)ccc2C1c1ccc(F)c(F)c1 (stereo not drawn)
A) 17.4 µM

Q) Requested field: TGI. Item: CO/N=C/c1c(-c2ccc(Cl)cc2)c(/C=N/OC)n2c1sc1ccccc12
A) > 100 µM

Q) Requested field: TGI. Item: Cc1ccc(S(=O)(=O)N/N=C2/CC[C@H](C(C)(C)C)C[C@@H]2C)cc1
A) 32.6 µM

Q) Requested field: TGI. Item: O=C(O)CCCC#CCCCC(=O)O
A) > 100 µM

Q) Requested field: TGI. Item: COc1ccc(N=C2C(=Nc3ccc(OC)cc3)N(c3ccccc3[N+](=O)[O-])C(=S)N2c2ccc(OC)cc2)cc1
A) > 100 µM

Q) Requested field: TGI. Item: COc1ccc2oc(-c3ccc(Cl)cc3)c(N3CCN(C)CC3)c2c1
A) 5.18 µM

Q) Requested field: TGI. Item: O=C1CC23CC(=O)CC2(C1)c1ccccc1C3=O (stereo not drawn)
A) > 100 µM

Q) Requested field: TGI. Item: O=C(NC1CCN(Cc2ccccc2)CC1)c1ccccc1I
A) > 100 µM

Q) Requested field: TGI. Item: Cc1cc2nc3c(C#N)c(-c4ccccc4)cc(Nc4cccc(C(F)(F)F)c4)n3c2cc1C
A) 80.7 µM

Q) Requested field: TGI. Item: Cc1ccc2cccc(OC(=O)c3cc4c(cc3Cl)Sc3nccn3S4(=O)=O)c2n1
A) 46.3 µM

Q) Requested field: TGI. Item: COC(=O)[C@]1(C)CCC[C@]2(C)C3CC4OOC3(C=C4C(C)C)CCC21 (stereo partly drawn)
A) 31.3 µM

Q) Requested field: TGI. Item: CC(C)(C)C1=NN=C2c3ccccc3C(=O)C21 (stereo not drawn)
A) > 100 µM

Q) Requested field: TGI. Item: Cn1c2ccccc2c(=S)c2cc(NC(=O)CCCCC(=O)Nc3ccc4c(c3)c(=S)c3ccccc3n4C)ccc21
A) > 100 µM

* * *

Tested on: SK-MEL-2 melanoma
Test: NCI tumour cell line growth inhibition, 48 h
This section presents molecules with their documented TGI values.

Answered cases to consult:
CN(C)C(=S)SCc1ccccc1
> 100 µM
CCOC(=O)c1cc(C2(OC)CCN(Cc3ccccc3)C2=O)c(-c2cc(C)no2)[nH]1 (stereo not drawn)
> 100 µM

Q) Requested field: TGI. Item: Cn1c2ccccc2c(=S)c2cc(NC(=O)CCCCC(=O)Nc3ccc4c(c3)c(=S)c3ccccc3n4C)ccc21
A) > 100 µM

* * *

System: SF-539 CNS
Test: NCI tumour cell line growth inhibition, 48 h
This section presents molecules with their documented GI50 values.

Cc1cc(Cl)ccc1Nc1nc(C(F)(F)F)ccc1C(=O)N/N=C/c1ccc(F)cc1
1960 nM
Cn1cc(-c2nc(-c3cn(C)c4ncccc34)cs2)c2cc(F)ccc21
1800 nM

Now, please, on to the next molecule.
Q) Requested field: GI50. Item: Clc1cccc(Cc2cn3cc(-c4ccccc4)nc3s2)c1
A) 8310 nM

* * *

System: ACHN renal
Assay: NCI tumour cell line growth inhibition, 48 h
MEASUREMENT NAME: TGI

Answered cases to consult:
CCNCCNc1cc(C2CCCC2)c(C#N)c2nc3ccccc3n12
4 µM
CNC(=S)N/N=C(/C)CCC/C(C)=N/NC(=S)NC
> 100 µM
O=C(Nc1ncc(Cc2ccc(Cl)cc2)s1)c1ccc2c(c1)OCCO2
> 54.5 µM
CC(=O)OCC(OC(C)=O)C(OC(C)=O)C(OC(C)=O)C(/C=N\Nc1nc2ccccc2c(=O)[nH]1)OC(C)=O (configuration not stated)
> 100 µM
O=C1C(c2c(O)[nH]c3ccc(S(=O)(=O)N(CCO)CCO)cc23)=Nc2ccccc21
> 100 µM
Cn1cc(-c2nc(-c3cn(C)c4ncccc34)cs2)c2cc(F)ccc21
> 100 µM

Now, please, on to the next compound.
Q) Requested field: TGI. Item: COc1ccc(/C=C/C(=O)c2ccc(NC(=O)CSc3nnc(-c4cc(OC)c(OC)c(OC)c4)o3)cc2)cc1
A) 3.22 µM

* * *

System: UACC-62 melanoma
Assay: NCI tumour cell line growth inhibition, 48 h
This section presents molecules with their documented TGI values.

Answered cases to consult:
CCOC(=O)c1nc2ccc(C(F)(F)F)cc2nc1Nc1ccc(OC)c(OC)c1
> 100 µM
CC(C)(Cc1ccccc1)Cc1cc(O)ccc1O
61.8 µM
CN(C)CC1CN(C(=O)Nc2ccccc2)C(=N)O1 (configuration not stated)
> 100 µM
N=C(N)c1ccc(-c2ccc(-c3ccc(C(=N)N)cc3)o2)cc1
> 100 µM
CCC(CCCCC1CC[C@H]2CC(=O)C[C@@H]12)OC (some centres not stated)
> 100 µM

Q) Requested field: TGI. Item: COc1ccc2oc(-c3ccc(Cl)cc3)c(N3CCN(C)CC3)c2c1
A) 3.44 µM

Q) Requested field: TGI. Item: COC(=O)C1CCc2nnc(-c3cccnc3)n21 (configuration not stated)
A) > 100 µM

Q) Requested field: TGI. Item: COc1ccc(-c2oncc2-c2cc(OC)c3c(c2)OCO3)cc1
A) 57.7 µM

* * *

Tested on: TK-10 renal
Test: NCI tumour cell line growth inhibition, 48 h
This section presents molecules with their documented TGI values.

CC(=O)O[C@@H]1CC(=O)O[C@@H]2C[C@@H](CC/C(Cl)=C/C/C=C\1C)O[C@@H]2CO
> 25 µM
CCCCC/C(=N\c1nc[nH]c1C(N)=O)OCC
> 100 µM
CN(CCNC(=O)c1cc(-c2ccccc2)nc2ccccc12)CCNC(=O)c1cc(-c2ccccc2)nc2ccccc12
> 100 µM

Now, please, on to the next molecule.
Q) Requested field: TGI. Item: Cc1cc(Cl)ccc1Nc1nc(C(F)(F)F)ccc1C(=O)N/N=C/c1c(Cl)cccc1Cl
A) 1.79 µM

* * *

System: NCI-H226 lung
Assay: NCI tumour cell line growth inhibition, 48 h
This section presents compounds with their documented TGI values.

Q) Requested field: TGI. Item: OCCCNC(=S)Nc1ccc(-c2nc3ccccc3s2)cc1
A) 49.6 µM

Q) Requested field: TGI. Item: Clc1ccc(N=Cc2cc3cc(Br)ccc3nc2Cl)cc1
A) > 50 µM

Q) Requested field: TGI. Item: O=C1[C@H](c2ccccc2)C2c3ccccc3CCN12 (stereo partly specified)
A) > 100 µM

Q) Requested field: TGI. Item: Cc1cc(-c2ccc(Cl)cc2)c(C#N)c(=S)n1C1OC(CO)C(O)C(O)C1O (stereo unspecified)
A) > 100 µM

Q) Requested field: TGI. Item: O=C1/C(=c2\c3ccccc3n3c(=O)c4ccccc4nc23)Nc2ccccc21
A) > 100 µM

Q) Requested field: TGI. Item: CC(C)(Cc1ccccc1)Cc1cc(O)ccc1O
A) 97.8 µM

* * *

Tested on: A549 NSCLC
Assay: NCI tumour cell line growth inhibition, 48 h
MEASUREMENT NAME: TGI

Answered cases to consult:
COc1ccc(N=C2C(=Nc3ccc(OC)cc3)N(c3ccccc3[N+](=O)[O-])C(=S)N2c2ccc(OC)cc2)cc1
> 100 µM
[O-][N+]1=C(c2ccccc2)COc2ccccc21
> 100 µM

Now, please, on to the next compound.
Q) Requested field: TGI. Item: c1ccc(-c2cc(-c3cc(-c4ccccc4)no3)on2)cc1
A) > 100 µM

* * *

System: MDA-MB-231 breast
Experiment: NCI tumour cell line growth inhibition, 48 h
MEASUREMENT NAME: TGI

O=C1C(c2c(O)[nH]c3ccc(S(=O)(=O)N(CCO)CCO)cc23)=Nc2ccccc21
> 100 µM
COc1ccc(/C=C2\CCCC3=C2N=C2SC=NN2C3c2ccc(OC)c(OC)c2)cc1OC (stereo not drawn)
> 100 µM

Now, please, on to the next compound.
Q) Requested field: TGI. Item: O=CNc1ccc2c(c1)Cc1cc([N+](=O)[O-])ccc1-2
A) > 100 µM

* * *

System: NCI/ADR-RES ovarian
Experiment: NCI tumour cell line growth inhibition, 48 h
MEASUREMENT NAME: TGI

CN(CCNC(=O)c1cc(-c2ccccc2)nc2ccccc12)CCNC(=O)c1cc(-c2ccccc2)nc2ccccc12
> 100 µM
Cc1nn(C(=O)c2ccncc2)c2c1C(c1ccccc1O)SC(N)=N2 (stereo not drawn)
> 10 µM

Now, please, on to the next compound.
Q) Requested field: TGI. Item: COc1ccc2c(c1)CC[C@@H]1[C@@H]2CC[C@]2(C)c3c(cc(C(=O)c4ccccc4)c4sccc34)C[C@@H]12
A) > 100 µM
